# SYSTEM NAME: Phosphodiesterase 3 (Canis familiaris)
# TEST NAME: Inhibitory activity against canine cardiac fraction III cyclic AMP phosphodiesterase (PDE III)
Entries are sorted into classes by IC50 as follows: class A (below 20 µM), class B (20 µM to below 100 µM), class C (100 µM or more)

[
  {
    "SMILES STRING": "COc1cc2nc(O)nc(C(C)C)c2cc1OC",
    "ASSIGNED CLASS": "class B"
  }
]

Lab note: sort COc1ccc(OC)c2c(C)nc(O)nc12 into the matching IC50 band.
class C

Entry Cc1nc(O)nc2ccc(N(C)C)cc12 please
class B

Entry Cc1nc(O)nc2ccccc12 please
class C

Entry COc1cc(OC)c2c(C)nc(O)nc2c1 please
class B

Entry COc1cc(OC)c2nc(O)nc(C)c2c1 please
class C

Entry Br.Cc1nc(O)nc2ccc(O)c(O)c12 please
class A

Entry COc1cc2nc(O)nc(C3CCCC3)c2cc1OC please
class B

Entry COc1cc2nc(O)nc(-c3ccccc3)c2cc1OC please
class A

###

# Test system: Canis familiaris
# TEST NAME: Effect on heart rate (HR) in anesthetized open-chest dogs at 1.875 mg/kg intravenous dose
# Format: functional, Canis lupus familiaris
What Change was measured for each of the following?
Please state the number and follow it with the unit.

# annotated cases, reported Change shown
[
  {
    "SMILES STRING": "COc1cc2nc(O)nc(C)c2c(OC)c1OC",
    "SYSTEM NAME": "Canis familiaris",
    "Change": "0%"
  },
  {
    "SMILES STRING": "COc1ccc2nc(O)ncc2c1OC",
    "SYSTEM NAME": "Canis familiaris",
    "Change": "10%"
  },
  {
    "SMILES STRING": "Cc1nc(O)nc2ccc3c(c12)OCO3",
    "SYSTEM NAME": "Canis familiaris",
    "Change": "13%"
  },
  {
    "SMILES STRING": "COc1ccc2c(c(C)nc(=O)n2C)c1OC",
    "SYSTEM NAME": "Canis familiaris",
    "Change": "5%"
  },
  {
    "SMILES STRING": "COc1cc2c(C)nc(O)nc2c(OC)c1OC",
    "SYSTEM NAME": "Canis familiaris",
    "Change": "3%"
  },
  {
    "SMILES STRING": "CCc1nc(O)nc2ccc(OC)c(OC)c12",
    "SYSTEM NAME": "Canis familiaris",
    "Change": "20%"
  },
  {
    "SMILES STRING": "Nc1cc(-c2ccncc2)c[nH]c1=O",
    "SYSTEM NAME": "Canis familiaris",
    "Change": "12%"
  },
  {
    "SMILES STRING": "COc1cc2nc(O)nc(Cc3ccccc3)c2cc1OC",
    "SYSTEM NAME": "Canis familiaris",
    "Change": "3%"
  }
]

Shifting focus to the compound that follows.
GET /values?readout=Change&system=Canis familiaris&item= Cc1nc(O)nc2ccc(N3CCN(C)CC3)cc12
6%

###

# System: Canis familiaris
# TEST NAME: Effect on myocardial contractile force (CF) in anesthetized open-chest dogs at 8.75 mg/kg intravenous dose
# Type: functional, Canis lupus familiaris, Myocardium
What Change was measured for each of the following?
One number for each entry, in %.

# annotated cases, reported Change shown
[
  {
    "SMILES STRING": "COc1cc2nc(O)nc(C(F)(F)F)c2cc1OC",
    "SYSTEM NAME": "Canis familiaris",
    "Change, %": 23
  },
  {
    "SMILES STRING": "Br.Cc1nc(O)nc2ccc(O)c(O)c12",
    "SYSTEM NAME": "Canis familiaris",
    "Change, %": 39
  },
  {
    "SMILES STRING": "COc1cc2nc(O)nc(C3CCCC3)c2cc1OC",
    "SYSTEM NAME": "Canis familiaris",
    "Change, %": 71
  },
  {
    "SMILES STRING": "COc1cc2nc(O)nc(C(C)C)c2cc1OC",
    "SYSTEM NAME": "Canis familiaris",
    "Change, %": 112
  },
  {
    "SMILES STRING": "Cc1nc(O)nc2ccc(N(C)C)cc12",
    "SYSTEM NAME": "Canis familiaris",
    "Change, %": 90
  }
]

Report Change for each item below.
1. CCc1nc(O)nc2cc(OC)c(OC)cc12
2. Cc1nc(O)nc2cc3c(cc12)OCO3
3. COc1cc2nc(O)nc(C)c2cc1OC

1: 82; 2: 66; 3: 90

###

# Test system: Canis familiaris
# TEST NAME: Effect on myocardial contractile force (CF) in anesthetized open-chest dogs at 8.75 mg/kg intravenous dose
# Assay type: functional, Canis lupus familiaris, Myocardium
REPORTED PROPERTY: Change (%)
Numbers only, in %.

Report Change for each item below.
1. Cc1nc(O)nc2ccccc12
2. COc1cc(OC)c2c(C)nc(O)nc2c1
3. Cc1nc(O)nc2ccc(Cl)cc12
4. Cc1nc(O)nc2cc(Cl)c(Cl)cc12
5. COc1cc(OC)c2nc(O)nc(C)c2c1
6. COc1ccc(OC)c2c(C)nc(O)nc12
7. COc1cc2nc(O)nc(-c3ccccc3)c2cc1OC

1: 93; 2: 97; 3: 85; 4: 10; 5: 60; 6: 54; 7: 106
